B1: Homeobox protein cut-like 1, residues 548 to 629; numbered along this chain, P39880 (parent)
chain: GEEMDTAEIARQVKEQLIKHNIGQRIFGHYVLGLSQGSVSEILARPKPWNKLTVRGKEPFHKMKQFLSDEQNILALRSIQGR

# Variants of: B1
# protocolNotes: abundance fitness (aPCA) (normalised: wild type 0, dead -1); higher = more abundant; growth selection in yeast, the domain comes from the species named
# setupConditions: Homo sapiens
# binarize abundance fitness: threshold -0.3 inclusive, high side met, low side not met

Hi team, for T53R , is the recorded abundance fitness at or above -0.3?
not met

Hi team, for G28Y , is the recorded abundance fitness at or above -0.3?
not met

Hi team, for K19H , is the recorded abundance fitness at or above -0.3?
met

Hi team, for G56C , is the recorded abundance fitness at or above -0.3?
met

Hi team, for A7L , is the recorded abundance fitness at or above -0.3?
met

Hi team, for E3D , is the recorded abundance fitness at or above -0.3?
met

Hi team, for M63I , is the recorded abundance fitness at or above -0.3?
not met

Hi team, for E2A , is the recorded abundance fitness at or above -0.3?
met

Hi team, for N21C , is the recorded abundance fitness at or above -0.3?
met

Hi team, for E8H , is the recorded abundance fitness at or above -0.3?
met

Hi team, for E70V , is the recorded abundance fitness at or above -0.3?
met

Hi team, for K64W , is the recorded abundance fitness at or above -0.3?
met

Hi team, for L32Q , is the recorded abundance fitness at or above -0.3?
not met

Hi team, for G1P , is the recorded abundance fitness at or above -0.3?
met

Hi team, for I9K , is the recorded abundance fitness at or above -0.3?
not met

Hi team, for K47S , is the recorded abundance fitness at or above -0.3?
met

Hi team, for S38Y , is the recorded abundance fitness at or above -0.3?
met

Hi team, for D5M , is the recorded abundance fitness at or above -0.3?
not met

Hi team, for T53V , is the recorded abundance fitness at or above -0.3?
not met

Hi team, for Q36K , is the recorded abundance fitness at or above -0.3?
met

Hi team, for K47F , is the recorded abundance fitness at or above -0.3?
not met
